Origin of values: ChEMBL document CHEMBL5352421

Tested on: A-375
Experiment: Antiproliferative activity against human A-375 cells assessed as growth inhibition incubated at 10 uM for 24 hrs by MTT assay relative to control
Format: functional
Details: read-out: GI
The threshold is inclusive: inhibition of growth at 10 µM of exactly 40% counts as fulfilled; values below receive not fulfilled.

S=C(Nc1ccccc1)N1CCN(c2nnc(Cc3ccccc3)c3ccccc23)CC1 not fulfilled
S=C(Nc1cccc(Cl)c1)N1CCN(c2nnc(Cc3ccccc3)c3ccccc23)CC1 fulfilled
COc1cccc(NC(=S)N2CCN(c3nnc(Cc4ccccc4)c4ccccc34)CC2)c1 fulfilled

## Input Dear colleague, could you confirm whether `COc1ccc(NC(=S)N2CCN(c3nnc(Cc4ccccc4)c4ccccc34)CC2)cc1` has inhibition of growth at 10 µM at or above 40%?
## Output not fulfilled

## Input Please check the record `O=C(c1ccc(Cl)cc1)N1CCN(c2nnc(Cc3ccccc3)c3ccccc23)CC1` and state if its inhibition of growth at 10 µM is at or above 40%.
## Output not fulfilled

## Input Please check the record `O=C(Nc1ccccc1)N1CCN(c2nnc(Cc3ccccc3)c3ccccc23)CC1` and state if its inhibition of growth at 10 µM is at or above 40%.
## Output fulfilled

## Input Reported inhibition of growth at 10 µM at or above 40%? `O=C(Nc1ccc(Cl)cc1)N1CCN(c2nnc(Cc3ccccc3)c3ccccc23)CC1`
## Output fulfilled

## Input Could you tell me if the measured inhibition of growth at 10 µM of `COc1ccc(Cc2nnc(N3CCN(C(=S)Nc4ccc(Cl)cc4)CC3)c3ccccc23)cc1` reaches 40% or more?
## Output fulfilled

## Input Decide: is the reported value of inhibition of growth at 10 µM for `O=C(c1ccccc1)N1CCN(c2nnc(Cc3ccccc3)c3ccccc23)CC1` equal to or greater than 40%?
## Output not fulfilled

## Input Is reported inhibition of growth at 10 µM greater than or equal to 40% here: `COc1ccc(Cc2nnc(N3CCN(C(=S)Nc4ccccc4)CC3)c3ccccc23)cc1`
## Output not fulfilled

## Input Check if inhibition of growth at 10 µM >= 40% (inclusive). Item: `O=C(Nc1ccc(Cl)c(C(F)(F)F)c1)N1CCN(c2nnc(Cc3ccccc3)c3ccccc23)CC1`
## Output not fulfilled

====

Target: Cyclin-dependent kinase 5 (Homo sapiens, UniProt Q00535)
Sequence (Q00535 whole entry): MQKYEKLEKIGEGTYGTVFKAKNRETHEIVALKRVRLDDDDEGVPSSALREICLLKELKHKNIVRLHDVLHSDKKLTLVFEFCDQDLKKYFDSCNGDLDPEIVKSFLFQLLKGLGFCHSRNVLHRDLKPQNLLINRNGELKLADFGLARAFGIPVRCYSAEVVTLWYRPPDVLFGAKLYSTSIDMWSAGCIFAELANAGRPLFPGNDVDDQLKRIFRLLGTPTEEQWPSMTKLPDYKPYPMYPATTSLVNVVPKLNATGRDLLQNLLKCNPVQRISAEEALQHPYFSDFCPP
Checkbox rule: IC50 lower than 600 nM = Condition met; IC50 not lower than 600 nM = Condition not met.

Recorded results for 3 compounds are shown here.
O=C(Nc1ccc(Cl)cc1)N1CCN(c2nnc(Cc3ccccc3)c3ccccc23)CC1 Condition not met
O=C(c1ccc(Cl)cc1)N1CCN(c2nnc(Cc3ccccc3)c3ccccc23)CC1 Condition not met
COc1ccc(Cc2nnc(N3CCN(C(=S)Nc4ccccc4)CC3)c3ccccc23)cc1 Condition not met

## Input State whether 600 nM exceeds IC50 recorded for `COc1cccc(NC(=S)N2CCN(c3nnc(Cc4ccccc4)c4ccccc34)CC2)c1` .
## Output Condition not met

## Input For this compound, is IC50 lower than 600 nM? `COc1ccc(Cc2nnc(N3CCN(C(=S)Nc4cccc(Cl)c4)CC3)c3ccccc23)cc1`
## Output Condition met

====

Assay: Antiproliferative activity against human MDA-PATC53 cells assessed as growth inhibition incubated at 10 uM for 24 hrs by MTT assay relative to control
Assay type: functional
Details: read-out: GI
Measured inhibition of growth at 10 µM, listed per entry.
Give the value in % but do not write % after it.

COc1cccc(NC(=S)N2CCN(c3nnc(Cc4ccccc4)c4ccccc34)CC2)c1 76.3
COc1ccc(NC(=O)N2CCN(c3nnc(Cc4ccccc4)c4ccccc34)CC2)cc1 85.2
O=C(Nc1ccccc1)N1CCN(c2nnc(Cc3ccccc3)c3ccccc23)CC1 77.9
COc1ccc(NC(=S)N2CCN(c3nnc(Cc4ccccc4)c4ccccc34)CC2)cc1 49

## Input I'd like to know its inhibition of growth at 10 µM. The compound in question is `COc1ccc(C(=O)N2CCN(c3nnc(Cc4ccccc4)c4ccccc34)CC2)cc1`
## Output 42

## Input Returns the measured inhibition of growth at 10 µM for the input compound. Input: `COc1ccc(Cc2nnc(N3CCN(C(=O)Nc4ccc(OC)cc4)CC3)c3ccccc23)cc1`
## Output 73.1

## Input Tell me the measured inhibition of growth at 10 µM of `COc1ccc(Cc2nnc(N3CCN(C(=O)Nc4ccc(Cl)c(C(F)(F)F)c4)CC3)c3ccccc23)cc1` , please.
## Output 99

## Input I have this compound here, `O=C(c1ccc(Cl)cc1)N1CCN(c2nnc(Cc3ccccc3)c3ccccc23)CC1` , and I need its recorded inhibition of growth at 10 µM.
## Output 45.1

## Input # get_value(readout='inhibition of growth at 10 µM', item= `COc1ccc(Cc2nnc(N3CCN(C(=S)Nc4ccc(Cl)cc4)CC3)c3ccccc23)cc1` )
## Output 85.8

## Input Could you tell me which inhibition of growth at 10 µM is on file for `S=C(Nc1ccccc1)N1CCN(c2nnc(Cc3ccccc3)c3ccccc23)CC1` ?
## Output 85.2
